Test system: UACC-257 melanoma
Assay: NCI-60 one-dose screen, 48 h
Conditions: 10 µM unless noted
The panel holds about 83,000 compounds, 20% with a hit somewhere; the sample as a whole holds those more often. Calls of active or inactive are those of the source. Rule for the calls: active = growth percent below 10; inactive = the rest.
Return exactly one item of active, inactive

Recorded call for COc1ccc(C)c2sc(N(Cc3cccnc3)C(=O)c3ccc(C#N)cc3)nc12 ?
active

Recorded call for O=c1oc2ccc(Cl)cc2c(=O)n1-c1ccc(I)cc1F ?
active

Recorded call for COc1ccc(S(=O)(=O)N(Cc2ccc3c(n2)C=CC(C)(C)O3)C2CCC2)cc1OC ?
active

Recorded call for Cn1cc(-c2ccc3ncc(-c4ccc(CC(=O)Nc5cc(C(C)(C)C)no5)cc4)nc3c2)cn1 ?
inactive

Recorded call for O=C(Nc1ccc(N2CCNCC2)cc1)c1[nH]ncc1Nc1cc(C2CC2)ncn1 ?
inactive

Recorded call for O=C1CCC(N2C(=O)c3cccc(NCCCCCCOc4ccc(Nc5nccc(Nc6ccccc6)n5)cc4)c3C2=O)C(=O)N1 (centres undefined) ?
inactive

Others:
Recorded call for COc1ccc(-c2nc(N3CCN(C(=O)C4CCCCC4)CC3)c3c4c(sc3n2)CCCC4)cc1 ?
inactive

Recorded call for O=c1oc2ccc(Cl)cc2c(=O)n1-c1ccc(Cl)cc1F ?
active

Recorded call for O=C(O)CCCN1C(=O)C2C3CCC(C3)C2C1=O (centres undefined) ?
inactive

Recorded call for C1=CC2(C=C1)OC21CCC2(C=CC3(C2)OC3C2CCCCC2)CC1 (centres undefined) ?
inactive

Recorded call for FC(F)(F)c1cccc(Nc2nc(-c3ccccc3)nc3ncccc23)c1 ?
active

Recorded call for CC(C)C[C@H](C(=O)N[C@H](C(N)=O)C(C)C)N1CC=CCN(OCc2ccccc2)S1(=O)=O ?
inactive

Recorded call for O=C(Nc1ccccc1O)c1ccc(Oc2cccc(C(=O)Nc3ccccc3O)c2)cc1 ?
inactive

Recorded call for O=C(Nc1ccc(N2CCNCC2)cc1)c1[nH]ncc1Nc1cc(Oc2ccccc2)ncn1 ?
inactive

----------
Test system: HS 578T breast
Assay: NCI-60 one-dose screen, 48 h (100 = growth as untreated, 0 = no growth, -100 = all killed)
Details: 10 µM unless noted
This is part of a sample that, as a whole, favours compounds with a hit. Of some 83,000 tested, about 20% had one in any assay.
Criterion: growth meeting or surpassing 50%. Met: y. Not met: n.

growth >= 50% for Nc1nc2c(ncn2[C@@H]2O[C@H](CS)[C@@H](O)[C@H]2O)c(=O)[nH]1 ?
y

growth >= 50% for c1ccc(CNc2nc(Nc3ccccc3)nc3ccccc23)cc1 ?
n

growth >= 50% for CCOC(=O)c1cc2c(n1Cc1cc(OC)c(OC)c(OC)c1)-c1oncc1CCC2 ?
n

growth >= 50% for COc1ccc(N)c(-c2cc3c(c4c2[nH]c2ccc(OC)cc24)CCCC3)c1 ?
y

growth >= 50% for Cc1cc(OC(=O)c2ccc([N+](=O)[O-])cc2)nc2[nH]c(=O)sc12 ?
y

Others:
growth >= 50% for Cc1cc(Nc2ccc(OCc3ccccc3)cc2)nc2cc(O)ccc12 ?
y

growth >= 50% for CNCCNc1nc2ccccc2c2c(=O)c3cc(OC)ccc3sc12 ?
y

growth >= 50% for CN(C)CCCNCc1ccc(-c2ccc(F)c(Cl)c2)o1 ?
y

growth >= 50% for CC(=O)SC1CC(=O)C=C2CCC3C4CCC(=O)OC4(C)CCC3C21C (stereo not given) ?
y

growth >= 50% for COc1cc(/C=C/C(=O)N2c3ccccc3CC2C)c(OC)c2c1OCO2 (stereo not given) ?
y

growth >= 50% for O=c1oc2ccc(-c3ccc(F)cc3F)cc2c(=O)n1-c1ccc(Cl)c(C(F)(F)F)c1 ?
n

growth >= 50% for COc1c(B(O)O)cccc1-c1nc2ccc3[nH]ncc3c2c2c1C1CCC2C1 (stereo not given) ?
n

----------
Give measured growth for each item. Keep answers brief.
System: IGROV1 ovarian
Assay: NCI-60 one-dose screen, 48 h (100 = growth as untreated, 0 = no growth, -100 = all killed)
Details: 10 µM unless noted
The panel holds about 83,000 compounds, 20% with a hit somewhere; the sample as a whole holds those more often.
Give bare numbers, in %.

Some entries whose results are on file:
Give me measured growth, please, for this compound: COc1cc(/C=C2\CCC/C(=C\c3cc(CN4CCCCC4)c(O)c(OC)c3)C2=O)cc(CN2CCCCC2)c1O
88.2

Give me measured growth, please, for this compound: Brc1ccc(Nc2nc3ccccc3nc2Nc2ccc(Br)cc2)cc1
1.3

Give me measured growth, please, for this compound: COC(=O)c1c2c(c(C)[n+]([O-])c1C)C(=O)C(NCc1ccc(Br)cc1)=CC2=O
5.51

Give me measured growth, please, for this compound: COc1cc(C2C(C#N)=C(N)OC3=C2C(=O)c2ccccc2C3=O)cc(OC)c1O (stereo not given)
62.1

For every item below, please supply its growth.
1. CCCCCCn1c(=N)n(CC(O)COc2cccc(C)c2)c2ccccc21 (stereo not given)
2. O=C(c1nc2ccccc2[nH]1)C1[C@@H](c2cccc(O)c2)C2CC3CCCCC3N2[C@@]12C(=O)Nc1cc(Cl)ccc12 (stereo not given in full)
3. CSc1nc2c(c(=O)[nH]1)N=C1c3ccccc3C(=O)C1C(c1ccccc1)N2 (stereo not given)
4. COc1ccc(-c2nsc3c2NC(=O)CC3c2cccc(OC)c2)cc1 (stereo not given)

[-58.1, 38.8, 17.4, 45.5]

For every item below, please supply its growth.
1. COc1cc2nc(-c3cccc4cccnc34)nc(NC3CCN(Cc4ccccc4)CC3)c2cc1OC
2. CCCCOCc1cc(CN2CCN(C)CC2)c(O)c2ncccc12

-61.5
80.8

----------
Test system: HOP-92 NSCLC
Assay: NCI-60 one-dose screen, 48 h
Conditions: 10 µM unless noted
Compounds without any hit were thinned out: in the full panel of roughly 83,000, 20% have a hit. Activity calls are given as the source filed them. Rule for the calls: active = growth percent below 10; inactive = the rest.
Return exactly one item of true = active, false = inactive

Illustrative cases are given below, each with its answer.
Recorded call for COc1nc2c(c(=O)n1C)N=C1c3ccccc3C(=O)C1C(c1ccccc1)N2 (centres undefined) ?
false

Recorded call for COc1cc(NC(=O)CCSc2nc3ccccc3c(=O)n2CCc2ccccn2)cc(OC)c1OC ?
false

Others:
Recorded call for NCCOc1ccccc1/C=C1\c2ccccc2-c2ccc([N+](=O)[O-])cc21 ?
true

Recorded call for COC(=O)c1c2c(c(C)[n+]([O-])c1C)C(=O)C(NCc1ccc(F)c(F)c1)=CC2=O ?
false

Recorded call for CN1C(=O)N(C)C2C1NN=c1s/c(=C\c3ccc(Cl)cc3Cl)c(=O)n12 (centres undefined) ?
false

Recorded call for Cc1c(-c2csc(-n3nc(C(F)(F)F)cc3C(F)(F)F)n2)no[n+]1[O-] ?
false

Recorded call for O=C(CN1C=NC2C(N3CCOCC3)=NC=NC21)c1ccc(Br)cc1 (centres undefined) ?
false

Recorded call for O=C1c2ccc3c4c(ccc(c24)C(=O)N1CCCCO)C(=O)N(CCCCO)C3=O ?
false

Recorded call for O=C(NCCCN1CCC(N2CCCCC2)CC1)C1=Cc2cc(Br)ccc2OC1 ?
false

----------
System: HCC-2998 colon
Experiment: NCI-60 one-dose screen, 48 h (100 = growth as untreated, 0 = no growth, -100 = all killed)
Settings: 10 µM unless noted
About 83,000 compounds went through this panel and 20% of them were active in at least one assay; those are over-represented in the sample as a whole. Active and inactive are the calls of the source. Rule for the calls: active = growth percent below 10; inactive = the rest.
measurementKind: growth

Some entries whose results are on file:
Give me measured growth, please, for this compound: O=C1NC(=S)NC(=O)C1=Cc1cn(Cc2cn(Cc3cccc4ccccc34)nn2)c2ccccc12
100% (inactive)

Give me measured growth, please, for this compound: CCCCN1CCN(c2ccc3nc(-c4ccc5nc(-c6ccc(OCC)cc6)[nH]c5c4)[nH]c3c2)CC1
90.3% (inactive)

Give me measured growth, please, for this compound: COc1cc2nc(NC3CCC3)nc(NC3CCN(C(C)C)CC3)c2cc1OC
22.7% (inactive)

For every item below, please supply its growth.
1. O=c1oc2ccc(Br)cc2c(=O)n1-c1ccc(Cl)cc1F
2. O=C(Nc1ccc(Br)cc1F)c1cc(F)ccc1O
3. C=C1C(=O)O[C@H]2[C@H]1CC/C(COC(=O)/C=C\C(=O)O)=C\CC[C@@]1(C)O[C@@H]21

["22.7% (inactive)", "17.8% (inactive)", "104% (inactive)"]

----------
Tested on: LOX IMVI melanoma
Assay: NCI-60 one-dose screen, 48 h (100 = growth as untreated, 0 = no growth, -100 = all killed)
Settings: 10 µM unless noted
This is part of a sample that, as a whole, favours compounds with a hit. Of some 83,000 tested, about 20% had one in any assay. The source made the active and inactive calls. Rule for the calls: active = growth percent below 10; inactive = the rest.
Give measured growth for each item. Keep answers brief.

Give me measured growth, please, for this molecule: c1ccc(-c2ccc(-c3nc4ccccc4[nH]3)cc2)cc1
84.1% (inactive)

Give me measured growth, please, for this molecule: CN1CCN(Cc2ccc(NC(=O)c3[nH]ncc3Nc3cc(OC4CCCC4)ncn3)cc2)CC1
17.9% (inactive)

Give me measured growth, please, for this molecule: COc1cc2nc(-c3cccc4cccnc34)nc(NC3CCN(Cc4ccccc4)CC3)c2cc1OC
-82.3% (active)

Give me measured growth, please, for this molecule: Clc1ccc(-c2nnc(COc3ccc(C4=NNC(c5ccco5)C4)cc3)o2)cc1 (stereo not drawn)
84.8% (inactive)

Give me measured growth, please, for this molecule: CCCCc1c(CCC)c(=N)c2ccccc2n1C
59% (inactive)

Give me measured growth, please, for this molecule: COc1ccc(N)c(-c2cc3c(c4c2[nH]c2ccc(OC)cc24)CCCC3)c1
83.1% (inactive)

Give me measured growth, please, for this molecule: CCCCCCC(O)(c1ccc(F)cc1)C(CN1CCOCC1)c1ccccc1 (stereo not drawn)
29.5% (inactive)

Give me measured growth, please, for this molecule: Oc1c(CN2CCN(c3ccccc3F)CC2)cc(Br)c2cccnc12
-8.44% (active)

For every item below, please supply its growth.
1. CCOC(=O)C1=CN(C)C=C(C(=O)OCC)C1c1cc(Br)c(OCC)c(OC)c1
2. NCCOc1ncccc1/C=C1\c2ccccc2-c2ccc(F)cc21
3. O=c1oc2ccc(F)cc2c(=O)n1-c1ccc(Br)cc1F

1. 18.3% (inactive)
2. -11.5% (active)
3. 13.5% (inactive)

For every item below, please supply its growth.
1. CCOC(=O)c1cc2c(n1Cc1cccc(OC)c1)-c1oncc1CCC2
2. CN1CCN(Cc2ccc(C(=O)Nc3cncc(C#Cc4cnc5cccnn45)c3)cc2C(F)(F)F)CC1

1. 33.7% (inactive)
2. 56% (inactive)
